Multi-source literature compilation: log10(IC50) on Carboxypeptidase B2 (Homo sapiens, UniProt Q96IY4).
Sequence (Q96IY4 whole entry): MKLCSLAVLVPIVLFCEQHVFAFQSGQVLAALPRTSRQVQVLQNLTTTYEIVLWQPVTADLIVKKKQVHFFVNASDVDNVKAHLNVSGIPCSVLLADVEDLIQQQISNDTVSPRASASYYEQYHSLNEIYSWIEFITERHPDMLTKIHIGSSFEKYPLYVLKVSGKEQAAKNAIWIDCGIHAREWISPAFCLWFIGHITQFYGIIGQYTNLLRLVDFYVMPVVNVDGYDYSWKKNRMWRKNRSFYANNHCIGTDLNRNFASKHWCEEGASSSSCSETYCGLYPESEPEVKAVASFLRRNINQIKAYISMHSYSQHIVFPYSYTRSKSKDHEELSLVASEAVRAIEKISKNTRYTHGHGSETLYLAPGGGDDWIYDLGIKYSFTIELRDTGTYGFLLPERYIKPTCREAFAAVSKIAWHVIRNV
Parameter value (number): base-10 log of IC50 in nM.

NCCCCC(C(=O)O)c1c[nH]cn1 (stereo not given); 2.77

# get_value(readout= log10(IC50), system= Carboxypeptidase B2 (Homo sapiens, UniProt Q96IY4)) for Cc1cc(CC(C(=O)O)c2c[nH]cn2)cnc1N (stereo not given) 2.00

# get_value(readout= log10(IC50), system= Carboxypeptidase B2 (Homo sapiens, UniProt Q96IY4)) for NCCCC(C(=O)O)c1cnc[nH]1 (stereo not given) 3.83

# get_value(readout= log10(IC50), system= Carboxypeptidase B2 (Homo sapiens, UniProt Q96IY4)) for CC12CCC(C(NC(=O)[C@@H](CC3CCCCC3)NC(=O)N[C@H](Cc3ccc(N)nc3)C(=O)O)C1)C2(C)C (stereo not given in full) 2.40

# get_value(readout= log10(IC50), system= Carboxypeptidase B2 (Homo sapiens, UniProt Q96IY4)) for CC1(C)C2CCC1(C)[C@@H](NC(=O)[C@H](CC1CCCCC1)NC(=O)N[C@@H](CCCCN)C(=O)O)C2 (stereo not given in full) 0.48

# get_value(readout= log10(IC50), system= Carboxypeptidase B2 (Homo sapiens, UniProt Q96IY4)) for Cc1cc(N)ncc1CC(C(=O)O)c1c[nH]cn1 (stereo not given) 3.18

# get_value(readout= log10(IC50), system= Carboxypeptidase B2 (Homo sapiens, UniProt Q96IY4)) for CC12CCC(C(NC(=O)[C@@H](Cc3ccccc3)NC(=O)N[C@@H](CCCCN)C(=O)O)C1)C2(C)C (single isomer, unassigned; (+)) 1.18

# get_value(readout= log10(IC50), system= Carboxypeptidase B2 (Homo sapiens, UniProt Q96IY4)) for CC12CCC(C(NC(=O)[C@@H](CC3CCCCC3)NC(=O)N[C@@H](CS(=O)(=O)CCN)C(=O)O)C1)C2(C)C (stereo not given in full) 1.58

# get_value(readout= log10(IC50), system= Carboxypeptidase B2 (Homo sapiens, UniProt Q96IY4)) for Cc1cc(CC(C(=O)O)c2cn(CCC(C)C)cn2)cnc1N (stereo not given) 1.36
